Just for reference, patent US20240166738A1 is where these values come from.

- ASSAY_TARGET: GST-TMEM106B (truncated, comprising amino acids 122-210 of SEQ ID NO:1) (Homo sapiens, UniProt Q9NUM4)
- Sequence (Q9NUM4 122-210): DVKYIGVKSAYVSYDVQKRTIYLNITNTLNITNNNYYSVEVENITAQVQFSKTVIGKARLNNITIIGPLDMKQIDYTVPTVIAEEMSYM
- METHOD: Pre-mix epitope binning of anti-TMEM106B antibodies (Carterra / Lake Pharma)
- Format: binding
- Design: key: Bin 1: competes for binding to the same or overlapping TMEM106B region as the TM1, TM17, TM22, TM26, TM79, and/or TM82 antibodies; Bin 2: competes for binding to the same or overlapping TMEM106B region as the TM3, TM9, TM10, TM11, TM12, TM13, TM18, TM19, TM21, TM24, TM25, TM32, TM35, TM37, TM42, TM45, TM48, TM54, TM59, TM60, TM61, and/or TM76 antibodies; Bin 3: competes for binding to the same or overlapping TMEM106B region as the TM7, TM15, TM83, and/or TM84 antibodies; Bin 4: competes for binding to the same or overlapping TMEM106B region as the TMS, TM28, TM29, TM30, TM63, TM64, TM72, TM78, TM80, TM86, and/or TM88 antibodies; Bin 5: does not bind to a truncated TMEM106B comprising amino acids 122-210 of SEQ ID NO:1
- TEST_CONTEXT: competition for binding to truncated GST-TMEM106B (amino acids 122-210)
EXPERIMENTAL_ENDPOINT: epitope bin

# MOLECULE, RECORDED_RESULT
measured = [
    ("TM-1: anti-TMEM106B monoclonal antibody; CDR-H1-3 SEQ ID NO: 2, 35, 78; CDR-L1-3 SEQ ID NO: 120, 160, 184 (antibody, V domains shown) VH: QVQLQQSGAELVRPGTSVKVSCKASGYAFTNYLIEWVKQRPGQGLEWIGVINPGSGGTKYNEKLKGKATLTADKSSSTAYMQLSSLTSVDSAVYFCARRGYTIYDFYAMDYWGQGTSVTVSS VL: DVLMTQTPLSLPVSLGDHASISCRSSQSIVYNNGNTYLEWYLQKPGQSPKLLIYKVSNRFSGVPDRFSGSGSGTDFTLKISRVEAEDLGVYYCFQVSHVPFTFGSGTKLEIK", "Bin 1"),
]
